# measurement-setup: in 2-butanone, 288.35 K
assay-metric: solubility (mole fraction)

Output solubility (mole fraction) of O=S(=O)(c1ccccc1)N(F)S(=O)(=O)c1ccccc1
0.0546

----------
# measurement-setup: in isopentanol, 302.65 K
assay-metric: solubility (mole fraction)
Numbers only.

Output solubility (mole fraction) of O=S(=O)(c1ccccc1)N(F)S(=O)(=O)c1ccccc1
0.00184

----------
# measurement-setup: in n-propanol, 307.35 K
assay-metric: solubility (mole fraction)
Numbers only.

Output solubility (mole fraction) of O=S(=O)(c1ccccc1)N(F)S(=O)(=O)c1ccccc1
0.00304

----------
# measurement-setup: in isopentanol, 316.95 K
assay-metric: solubility (mole fraction)
Numbers only.

Output solubility (mole fraction) of O=S(=O)(c1ccccc1)N(F)S(=O)(=O)c1ccccc1
0.00389

----------
# measurement-setup: in acetone, 273.35 K
assay-metric: solubility (mole fraction)
Answers are plain numbers.

Output solubility (mole fraction) of O=S(=O)(c1ccccc1)N(F)S(=O)(=O)c1ccccc1
0.0309

----------
# measurement-setup: in isobutanol, 273.35 K
assay-metric: solubility (mole fraction)
Give bare numbers.

Output solubility (mole fraction) of O=S(=O)(c1ccccc1)N(F)S(=O)(=O)c1ccccc1
0.000182

----------
# measurement-setup: in ethyl formate, 273.35 K
assay-metric: solubility (mole fraction)
Answers are plain numbers.

Output solubility (mole fraction) of O=S(=O)(c1ccccc1)N(F)S(=O)(=O)c1ccccc1
0.0206

----------
# measurement-setup: in isobutanol, 302.65 K
assay-metric: solubility (mole fraction)
One number for each entry.

Output solubility (mole fraction) of O=S(=O)(c1ccccc1)N(F)S(=O)(=O)c1ccccc1
0.00141

----------
# measurement-setup: in ethyl formate, 288.35 K
assay-metric: solubility (mole fraction)

Output solubility (mole fraction) of O=S(=O)(c1ccccc1)N(F)S(=O)(=O)c1ccccc1
0.0369

----------
# measurement-setup: in isobutanol, 322.85 K
assay-metric: solubility (mole fraction)
One number for each entry.

Output solubility (mole fraction) of O=S(=O)(c1ccccc1)N(F)S(=O)(=O)c1ccccc1
0.00467

----------
# measurement-setup: in 2-butanone, 312.55 K
assay-metric: solubility (mole fraction)
Numbers only.

Output solubility (mole fraction) of O=S(=O)(c1ccccc1)N(F)S(=O)(=O)c1ccccc1
0.111

----------
# measurement-setup: in isopentanol, 297.95 K
assay-metric: solubility (mole fraction)
Answers are plain numbers.

Output solubility (mole fraction) of O=S(=O)(c1ccccc1)N(F)S(=O)(=O)c1ccccc1
0.00142

----------
# measurement-setup: in methanol, 288.35 K
assay-metric: solubility (mole fraction)
Answers are plain numbers.

Output solubility (mole fraction) of O=S(=O)(c1ccccc1)N(F)S(=O)(=O)c1ccccc1
0.0013

----------
# measurement-setup: in isopentanol, 283.35 K
assay-metric: solubility (mole fraction)

Output solubility (mole fraction) of O=S(=O)(c1ccccc1)N(F)S(=O)(=O)c1ccccc1
0.000594

----------
# measurement-setup: in isopentanol, 292.85 K
assay-metric: solubility (mole fraction)
Numbers only.

Output solubility (mole fraction) of O=S(=O)(c1ccccc1)N(F)S(=O)(=O)c1ccccc1
0.00106

----------
# measurement-setup: in isobutanol, 312.55 K
assay-metric: solubility (mole fraction)
One number for each entry.

Output solubility (mole fraction) of O=S(=O)(c1ccccc1)N(F)S(=O)(=O)c1ccccc1
0.00258

----------
# measurement-setup: in isopropanol, 273.35 K
assay-metric: solubility (mole fraction)
Give bare numbers.

Output solubility (mole fraction) of O=S(=O)(c1ccccc1)N(F)S(=O)(=O)c1ccccc1
0.000584

Where these numbers come from: BigSolDB 2.1
